- System: Classical Swine Fever Virus (CSFV)
- experimental details: microbe, parasite or virus in culture
- Assay type: cell-based
- study conditions: Classical swine fever virus, PK-15
value type: IC50 (µM)
Kindly provide the numeric value in µM only, without the unit symbol.

Report IC50 for O=C[C@@H](CO)O[C@H](C=O)n1cnc2c(=O)[nH]c(=O)[nH]c21 [Dialdehyde-Xanthosine, dialdehyde form of xanthosine] please.
157

* * *

// CC50 lookup, one value per entry
- experimental details: Cytotoxicity (FIPV example)
- Assay type: cell-based, feline
- study conditions: cat, fcwf-4 cells; Table 9 (FIPV); cell line for cytotoxicity not given

Below: 3 molecules and their reported CC50.
1) O=c1[nH]cnc2c1ncn2[C@@H](CO)OC(CO)CO [Acyclic diol-Inosine, acyclic diol form of inosine]	> 10 mM
2) Nc1nc2c(ncn2[C@@H](CO)OC(CO)CO)c(=O)[nH]1 [Acyclic diol-Guanosine, acyclic diol form of guanosine]	> 10 mM
3) Nc1nc2c(ncn2[C@@H](C=O)O[C@@H](C=O)CO)c(=O)[nH]1 [Dialdehyde-Guanosine, dialdehyde form of guanosine]	> 6 mM

# next molecule below
Report CC50 for O=c1[nH]c(=O)c2ncn([C@@H](CO)OC(CO)CO)c2[nH]1 [Acyclic diol-Xanthosine, acyclic diol form of xanthosine] please.
> 10 mM
